Experiment: Mycobacterium tuberculosis growth inhibition, primary screen (AID 1259343)
Settings: at 10 µM
Out of some 6,200 compounds screened, about 2,900 (47%) were called active. Cut-off read from the data, not from the text of the source: active = inhibition above about 50%; inactive = the rest. So high a share suggests a set chosen from earlier hits. The list shows a part of the results.
Hi! Could you answer with just one of these? active, inactive

Short answer needed: outcome of this test for `Fc1ccccc1CCNc1ncnc2ccc(Cl)cc12` ?
active

Fill in: this test's call for CC1(C(=O)Nc2nc(-c3ccccc3Cl)cs2)Cc2ccccc2C(=O)O1 (configuration not stated) is ___
inactive

State the result this test recorded for Cc1ccc(NC(=O)CC(=O)N2CCC(C(O)CC(C)C)CC2)cc1Cl (configuration not stated) .
active

Please let me know the test result on file for Cc1ccc(NC(=O)CCC2CCCO2)cc1Cl (configuration not stated) .
active

How was `O=C(Nc1ncc(Cc2ccccc2Cl)s1)c1cnccn1` classified in this test?
active

What classification did NC(Cc1ccc(F)cc1)c1csc(Nc2nccc(C(F)(F)F)n2)n1 (configuration not stated) end up with in this test?
active

Just curious, what result did CC(C)c1nc(CCNC(=O)C2CC2c2cccc(O)c2)cs1 (configuration not stated) get here?
inactive

Hi, sorry to bother you, what did the test record for CC1CCc2c(sc3nc[nH]c(=S)c23)C1 (configuration not stated) ?
inactive

Check the results log: what was the call for `O=c1[nH]c2sc3c(c2c2ncnn12)CCCC3` ?
inactive

Answer briefly: the call reported for S=C(SC1OCCOC1SC(=S)N1CCOCC1)N1CCOCC1 (configuration not stated) in this assay.
active

// outcome(item) with item = NC(Cc1ccc(C(F)(F)F)cc1)c1csc(Nc2nccc(C(F)(F)F)n2)n1 (configuration not stated)
active

Hi, sorry to bother you, what did the test record for Cc1oc(C)c(C(=O)NC(C)Cc2ccc(Cl)cc2)c1C (configuration not stated) ?
inactive

Hi, sorry to bother you, what did the test record for O=C(c1ccc2c(c1)OCO2)C1CCCN(Cc2c(F)cccc2Cl)C1 (configuration not stated) ?
inactive

What classification did `O=C(CCl)Nc1nc(-c2ccccc2Cl)cs1` end up with in this test?
active

Recorded test call requested for `Fc1ccc(Cn2nnc3c(=S)nc[nH]c32)cc1`
active

# lookup: test call for `CCOc1ccc(Cn2c(=O)oc3ccccc32)cc1`
active

Would you mind telling me which call this test gave O=C(CCc1cccs1)N1CCN(CC2CCCO2)CC1 (configuration not stated) ?
inactive

How was `CN(C)C(=O)c1ccc(-c2cnc3c(c2)CCN3CCCc2ccccc2)cc1` classified in this test?
inactive

Look up the recorded call for `Fc1ccccc1CNCC1(c2ccnc(-c3ccc(Cl)cc3)c2)CC1` in this test.
inactive

// outcome(item) with item = `Fc1ccccc1-c1cnnc(NCCc2cccc(Cl)c2)n1`
inactive

Which result was noted for this compound in the test: `O=C(NCCCc1ccccc1)c1cc(=O)c(OCc2ccccc2)co1`
active

So what was the verdict on `Cc1cccc(CSc2ncnc3c2nnn3Cc2ccc(F)cc2)c1` in this test?
inactive

Which result was noted for this compound in the test: `CC(=NNC(=O)c1ccoc1C)c1ccc2c(c1)Nc1ccccc1S2`
active

Please state the recorded outcome for this compound: `Cc1ccc2oc(CN3CCN(c4cc(N)nc(N)n4)CC3)c(C)c2c1`
inactive

Any idea what this test logged for `Clc1ccc(-c2cnnc(N3CCC(c4ccncc4)CC3)n2)cc1` ?
inactive

For CC(NC(=O)CCC1CCCO1)c1ccc(Cl)s1 (configuration not stated) , which call appears in the assay record?
inactive

Dear colleague, could you share the recorded outcome for `Fc1ccccc1CSc1ncnc2c1nnn2Cc1ccccc1F` when you have a moment?
active

So what was the verdict on `O=C(CSc1ncnc2c1nnn2Cc1ccc(F)cc1)N1CCCCCC1` in this test?
inactive

# outcome recorded in this test, key = NC(Cc1ccc(Cl)cc1)c1csc(Nc2nccc(C(F)(F)F)n2)n1 (configuration not stated)
active

Given CCc1ccc(-c2nc(SC3CCCCC3=O)n[nH]2)cc1 (configuration not stated) , state the outcome it received in this test.
active

For `S=c1nc[nH]c2c1nnn2Cc1ccc(Cl)cc1` , what call appears in the results of this test?
active

Just curious, what result did `Cc1ccc(C)c(COc2cccn3c(CCNC(=O)COCc4ccccc4)cnc23)c1` get here?
inactive
